Exercise: state measured delta for each of the binders provided.
Biological target: recombinant human-Dectin-1 mouse Fc fusion (human) (UniProt Q9BXN2)
Experiment: Octet BLI, delta between the two X values
Numbers only, in %.

Study these solved cases before continuing.
- binder: "2M24A.1.11 hFab (Fab, V domains shown) VH: QVQLVQSGAEVKKPGASVKVSCKSSGYTFTAYYIHWVRQAPGQGLEWMGWINPNSGDTNYAQKFQGRITMTRDTSISTAYLELSRLRSDDTAVFYCARNSGSYSFGYWGQGTLVTVSS VL: DIQMTQSPSSVSASVGDRVTITCRASQGISSWLAWYQQKPGKAPKLLIFGASSLQSGVPSRFSGSGSGTDFTLTVSSLQPEDFATYYCQQAYSFPFTFGPGTKVDIE"
  readout number: 16
- binder: "2M24A.1.14 hFab (Fab, V domains shown) VH: QVQLVQSGAEVKKPGASVKVSCKSSGYTFTDYYIHWVRQAPGQGLEWMGWINPNSGDTNYAQKFQGRITMTRDTSISTAYLELSRLRSDDTAVFYCARNSGSASFGYWGQGTLVTVSS VL: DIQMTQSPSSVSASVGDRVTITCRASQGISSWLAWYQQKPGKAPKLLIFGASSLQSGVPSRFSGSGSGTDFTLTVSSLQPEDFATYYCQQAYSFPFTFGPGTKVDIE"
  readout number: 100

# input for lookup
Challenge: I am curious: what delta value has been reported for 2M24A.1.20 (Fab, V domains shown) VH: QVQLVQSGAEVKKPGASVKVSCKSSGYTFTDYYIHWVRQAPGQGLEWMGWINPNSGDTNYAQKFQGRITMTRDTSISTAYLELSRLRSDDTAVFYCARNSGSYSAGYWGQGTLVTVSS VL: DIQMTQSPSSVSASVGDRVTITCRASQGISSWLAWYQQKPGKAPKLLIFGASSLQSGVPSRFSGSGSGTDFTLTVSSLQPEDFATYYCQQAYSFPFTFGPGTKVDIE ?
Response given: 78
